- assay comment: Polydispersity index (PDI) of the lipid nanoparticle (dynamic light scattering)
- Format: physicochemical
- condition set: Table 5; PLK1-424 siRNA LNP; stealth lipid S010, 45/44/9/2
Returns MET if the recorded PDI is greater than or equal to 0.04, and NOT MET otherwise.

{"compound": "CCCCCCCCCCOC(=O)CCCCCCCOc1cc(CN(C)C)cc(OCCCCCCCC(=O)OCCCCCCCCCC)c1", "answer label": "NOT MET"}
{"compound": "CCCCCCCC(=O)OCCCCCCCCCCOc1cc(CN(C)C)cc(OCCCCCCCCCCOC(=O)CCCCCCC)c1", "answer label": "MET"}
{"compound": "CCCCCCCC(=O)OCC(CCOc1cc(CN(C)C)cc(OCCC(COC(=O)CCCCCCC)OC(=O)CCCCCCC)c1)OC(=O)CCCCCCC (stereo not shown)", "answer label": "NOT MET"}
{"compound": "CCCCC/C=C\\C/C=C\\CCCCCCCC(=O)OCCCCOc1cc(CN(C)C)cc(OCCCCOC(=O)CCCCCCC/C=C\\C/C=C\\CCCCC)c1", "answer label": "NOT MET"}
{"compound": "CCCCCCCCCC(=O)OCCCCCCCCOc1cc(CN(C)C)cc(OCCCCCCCCOC(=O)CCCCCCCCC)c1", "answer label": "MET"}
{"compound": "CCCCCCCC(=O)OCCCCCCCCOc1cc(CN(C)C)cc(OCCCCCCCCOC(=O)CCCCCCC)c1", "answer label": "MET"}

###

pKa for assorted compounds
- assay comment: pKa measurement of the cationic lipid (TNS fluorescence vs pH)
- Format: physicochemical
- condition set: probe TNS (fluorescent probe), Table 5; pKa of the cationic lipid of formula (I)
measurement name: pKa

{"compound": "CCCCCCCC(=O)OCC(CCOc1cc(CN(C)C)cc(OCCC(COC(=O)CCCCCCC)OC(=O)CCCCCCC)c1)OC(=O)CCCCCCC (stereo not shown) [Example 91]", "measurement": 6.01}
{"compound": "CCCCC/C=C\\C/C=C\\CCCCCCCC(=O)OCCCCOc1cc(CN(C)C)cc(OCCCCOC(=O)CCCCCCC/C=C\\CCCCCCCC)c1 [Example 63]", "measurement": 5.9}
{"compound": "CCCCC/C=C\\C/C=C\\CCCCCCCC(=O)OCCCCOc1cc(CN(C)C)cc(OCCCCOC(=O)CCCCCCC/C=C\\C/C=C\\CCCCC)c1 [Example 38]", "measurement": 5.93}
{"compound": "CCCCCCCC(=O)OCCCCCCCCCCOc1cc(CN(C)C)cc(OCCCCCCCCCCOC(=O)CCCCCCC)c1 [Example 43]", "measurement": 5.85}
{"compound": "CCCCC/C=C\\C/C=C\\CCCCCCCCOc1cc(CN(C)C)cc(OCCCCCCCC/C=C\\C/C=C\\CCCCC)c1 [Example 2]", "measurement": 5.57}
{"compound": "CCCCCCCC(=O)OCCCCCCCCOc1cc(CN(C)C)cc(OCCCCCCCCOC(=O)CCCCCCC)c1 [Example 42]", "measurement": 5.93}
{"compound": "CCCCCCCCCCOC(=O)CCCCCCCOc1cc(CN(C)C)cc(OCCCCCCCC(=O)OCCCCCCCCCC)c1 [Example 57]", "measurement": 5.94}
{"compound": "CCCCCCCC/C=C\\CCCCCCCCOc1cc(CN(C)C)cc(OCCCCCCCC/C=C\\CCCCCCCC)c1 [Example 1]", "measurement": 5.59}
{"compound": "CCCCCCCCCC(=O)OCCCCCCCCOc1cc(CN(C)C)cc(OCCCCCCCCOC(=O)CCCCCCCCC)c1 [Example 52]", "measurement": 5.96}
{"compound": "CCCCC/C=C\\C/C=C\\CCCCCCCC(=O)OCCCOc1cc(CN(C)C)cc(OCCCOC(=O)CCCCCCC/C=C\\C/C=C\\CCCCC)c1 [Example 39]", "measurement": 5.91}
